The values you see were collected from patent US20220177587A1.

This listing pairs molecules with measured PD-L1 MFI at 33.3 nM.
# tgt: huPD-L1 (Homo sapiens, UniProt Q9NZQ7)
# Sequence (Q9NZQ7 19-290): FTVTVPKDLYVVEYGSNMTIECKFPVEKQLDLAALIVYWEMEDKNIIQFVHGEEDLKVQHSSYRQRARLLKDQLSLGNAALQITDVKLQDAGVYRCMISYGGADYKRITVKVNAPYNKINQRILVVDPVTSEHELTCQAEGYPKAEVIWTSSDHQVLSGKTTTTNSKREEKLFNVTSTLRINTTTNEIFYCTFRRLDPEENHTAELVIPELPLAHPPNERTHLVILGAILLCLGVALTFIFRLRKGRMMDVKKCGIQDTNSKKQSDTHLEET
# experiment: Flow binding to CHO cells stably expressing PD-L1
# Parameters: huCTLA4 and huPD-L1, full-length mammalian surface expression constructs were generated; expressed in transfected cells; host or cells: CHO cells, lentiviral transduction, sorted to >98% purity
# condition_label: Table E4; 33.3 nM; CHO cells stably expressing PD-L1
Number, no unit, nothing else.

Reference set, count: 2
E35D/M47V/A71G/E88D (protein, UniProt P33681 35-288, looked up, variant E35D M47V A71G E88D) T-lymphocyte activation …: VIHVTKEVKEVATLSCGHNVSVEELAQTRIYWQKDKKMVLTMMSGDVNIWPEYKNRTIFDITNNLSIVILGLRPSDEGTYECVVLKYDKDAFKREHLAEVTLSVKADFPTPSISDFEIPTSNIRRIICSTSGGFPEPHLSWLENGEELNAINTTVSQDPETELYAVSSKLDFNMTTNHSFMCLIKYGHLRVNQTFNWNTTKQEHFPDNLLPSWAITLISVNGIFVICCLTYCFAPRCRERRRNERLRRESVRPV ... 37146
E35D/M47V/N48KN68M/K89N (protein) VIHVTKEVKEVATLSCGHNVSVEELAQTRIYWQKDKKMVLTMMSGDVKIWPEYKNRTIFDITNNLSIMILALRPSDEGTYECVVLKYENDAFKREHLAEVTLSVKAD ... 89775

Next:
Measured PD-L1 MFI at 33.3 nM of E35D/M47V/A71G (protein, UniProt P33681 35-288, looked up, variant E35D M47V A71G) T-lymphocyte activation …: VIHVTKEVKEVATLSCGHNVSVEELAQTRIYWQKDKKMVLTMMSGDVNIWPEYKNRTIFDITNNLSIVILGLRPSDEGTYECVVLKYEKDAFKREHLAEVTLSVKADFPTPSISDFEIPTSNIRRIICSTSGGFPEPHLSWLENGEELNAINTTVSQDPETELYAVSSKLDFNMTTNHSFMCLIKYGHLRVNQTFNWNTTKQEHFPDNLLPSWAITLISVNGIFVICCLTYCFAPRCRERRRNERLRRESVRPV : 36216
